# Tested on: HT29 RAMS11 overexpressing cells
# PROCEDURE SUMMARY: High-throughput viability assay (resazurin), 119 FDA-approved anticancer drugs, RAMS11 overexpressing cells (Clone1, Clone2)
# STATED CONDITIONS: OE2 (RAMS11 overexpression clone 2), 10 uM drug, 72 h, vs empty vector control
Where a name gives a salt, the structure may show the parent alone. Starred links: 1 amine or outer side, 2 acyl side, 3 side chain; linkers in the order of their positions; H or OH if unused. Positions of bridges follow the written chain, without caps; N, C: chain ends. Non-standard residues stand in square brackets, D forms with d. Residues, ends and D or L forms follow the SMILES beside them. Chains are numbered I, II in the order given. Actinocin(9to1) = Cc1c2oc3c(C)ccc(C(=O)[*:1])c3nc-2c(C(=O)[*:2])c(N)c1=O; NMeV = CN[C@H](C(=O)O)C(C)C; Sar = CNCC(=O)O
Below, each entry is listed alongside its reported Viability Fold Change.
VALUE TYPE: Viability Fold Change

COMPOUND	SYSTEM UNDER TEST	VALUE TYPE	OBS VALUE
C#CCC(Cc1cnc2nc(N)nc(N)c2n1)c1ccc(C(=O)N[C@@H](CCC(=O)O)C(=O)O)cc1 (stereo partly shown) [Pralatrexate]	HT29 RAMS11 overexpressing cells	Viability Fold Change	1.119
O=C1CCC(N2C(=O)c3ccccc3C2=O)C(=O)N1 (stereo not shown) [Thalidomide]	HT29 RAMS11 overexpressing cells	Viability Fold Change	1.074
C=C1C[C@@H]2[C@H](CC[C@]3(C)C(=O)CC[C@@H]23)[C@@]2(C)C=CC(=O)C=C12	HT29 RAMS11 overexpressing cells	Viability Fold Change	1.06
Cc1c2oc3c(C)ccc(C(=O)N[C@@H]4C(=O)N[C@H](C(C)C)C(=O)N5CCC[C@H]5C(=O)N(C)CC(=O)N(C)[C@@H](C(C)C)C(=O)O[C@@H]4C)c3nc-2c(C(=O)N[C@@H]2C(=O)N[C@H](C(C)C)C(=O)N3CCC[C@H]3C(=O)N(C)CC(=O)N(C)[C@@H](C(C)C)C(=O)O[C@@H]2C)c(N)c1=O [Dactinomycin] (I: T[dV]P[Sar][NMeV] / II: T[dV]P[Sar][NMeV]; ester I:1-I:C, II:1-II:C; linker I:N-II:N via Actinocin(9to1))	HT29 RAMS11 overexpressing cells	Viability Fold Change	2.498
CC(=O)O[C@]1(C(C)=O)CC[C@H]2[C@@H]3C=C(C)C4=CC(=O)CC[C@]4(C)[C@H]3CC[C@@]21C [Megestrol acetate]	HT29 RAMS11 overexpressing cells	Viability Fold Change	0.9016
CNC(=O)c1ccc(N2C(=S)N(c3ccc(C#N)c(C(F)(F)F)c3)C(=O)C2(C)C)cc1F [Enzalutamide]	HT29 RAMS11 overexpressing cells	Viability Fold Change	1.1
C#Cc1cccc(Nc2ncnc3cc(OCCOC)c(OCCOC)cc23)c1 [Erlotinib HCl]	HT29 RAMS11 overexpressing cells	Viability Fold Change	1.215
C[C@]12CC[C@@H]3c4ccc(O)cc4C[C@@H](CCCCCCCCC[S+]([O-])CCCC(F)(F)C(F)(F)F)[C@H]3[C@@H]1CC[C@@H]2O (stereo partly shown)	HT29 RAMS11 overexpressing cells	Viability Fold Change	1.036
CS(=O)(=O)OCCCCOS(C)(=O)=O	HT29 RAMS11 overexpressing cells	Viability Fold Change	0.871
Cc1ccc(-c2cc(C(F)(F)F)nn2-c2ccc(S(N)(=O)=O)cc2)cc1	HT29 RAMS11 overexpressing cells	Viability Fold Change	0.9848
COc1c2occc2cc2ccc(=O)oc12	HT29 RAMS11 overexpressing cells	Viability Fold Change	0.9406
COC(=O)C[C@](O)(CCCC(C)(C)O)C(=O)O[C@@H]1C(OC)=C[C@]23CCCN2CCc2cc4c(cc2[C@H]13)OCO4 [Omacetaxine mepesuccinate]	HT29 RAMS11 overexpressing cells	Viability Fold Change	1.436
O=C(c1ccc(OCCN2CCCCC2)cc1)c1c(-c2ccc(O)cc2)sc2cc(O)ccc12	HT29 RAMS11 overexpressing cells	Viability Fold Change	0.9671
CC(C)C[C@H](NC(=O)[C@H](CCc1ccccc1)NC(=O)CN1CCOCC1)C(=O)N[C@@H](Cc1ccccc1)C(=O)N[C@@H](CC(C)C)C(=O)[C@@]1(C)CO1	HT29 RAMS11 overexpressing cells	Viability Fold Change	1.343
O=C(O)CCCc1ccc(N(CCCl)CCCl)cc1	HT29 RAMS11 overexpressing cells	Viability Fold Change	0.9173
CN(C)C/C=C/C(=O)Nc1cc2c(Nc3ccc(F)c(Cl)c3)ncnc2cc1O[C@H]1CCOC1	HT29 RAMS11 overexpressing cells	Viability Fold Change	1.398
O=P(O)(O)C(O)(Cn1ccnc1)P(=O)(O)O	HT29 RAMS11 overexpressing cells	Viability Fold Change	1.082
COc1cc2ncnc(Nc3ccc(F)c(Cl)c3)c2cc1OCCCN1CCOCC1	HT29 RAMS11 overexpressing cells	Viability Fold Change	1.392
Nc1nc(Cl)nc2c1ncn2[C@@H]1O[C@H](CO)[C@@H](O)[C@@H]1F	HT29 RAMS11 overexpressing cells	Viability Fold Change	2.375
Clc1ccc(C(c2ccccc2Cl)C(Cl)Cl)cc1 (stereo not shown)	HT29 RAMS11 overexpressing cells	Viability Fold Change	0.987
N.N.O=C([O-])C1(C(=O)[O-])CCC1.[Pt+2]	HT29 RAMS11 overexpressing cells	Viability Fold Change	0.9969
COc1cc(Nc2c(C#N)cnc3cc(OCCCN4CCN(C)CC4)c(OC)cc23)c(Cl)cc1Cl	HT29 RAMS11 overexpressing cells	Viability Fold Change	1.608
CC/C(=C(\c1ccccc1)c1ccc(OCCN(C)C)cc1)c1ccccc1 [Tamoxifen Citrate]	HT29 RAMS11 overexpressing cells	Viability Fold Change	1.059
CC[C@@]1(O)C(=O)OCc2c1cc1n(c2=O)Cc2cc3c(CN(C)C)c(O)ccc3nc2-1 [Topotecan HCL]	HT29 RAMS11 overexpressing cells	Viability Fold Change	2.763
CO[C@H]1C[C@@H]2CC[C@@H](C)[C@@](O)(O2)C(=O)C(=O)N2CCCC[C@H]2C(=O)O[C@H]([C@H](C)C[C@@H]2CC[C@@H](O)[C@H](OC)C2)CC(=O)[C@H](C)/C=C(\C)[C@@H](O)[C@@H](OC)C(=O)[C@H](C)C[C@H](C)/C=C/C=C/C=C/1C	HT29 RAMS11 overexpressing cells	Viability Fold Change	0.7575
Cc1cc(Nc2ncc(Cl)c(Nc3ccccc3S(=O)(=O)C(C)C)n2)c(OC(C)C)cc1C1CCNCC1	HT29 RAMS11 overexpressing cells	Viability Fold Change	0.8195
CO[C@@]12[C@H](COC(N)=O)C3=C(C(=O)C(C)=C(N)C3=O)N1C[C@@H]1N[C@@H]12	HT29 RAMS11 overexpressing cells	Viability Fold Change	2.004
Nc1cccc2c1CN(C1CCC(=O)NC1=O)C2=O (stereo not shown) [Lenalidomide]	HT29 RAMS11 overexpressing cells	Viability Fold Change	0.8902

* * *

# Tested on: HT29 RAMS11 overexpressing cells
# PROCEDURE SUMMARY: High-throughput viability assay (resazurin), 119 FDA-approved anticancer drugs, RAMS11 overexpressing cells (Clone1, Clone2)
# STATED CONDITIONS: OE1 (RAMS11 overexpression clone 1), 0.1 uM drug, 72 h, vs empty vector control
Structures can show the parent of a compound that is named as a salt.
Viability Fold Change values for the molecules below.
VALUE TYPE: Viability Fold Change

>>> print(df.to_string())
                                   molecule                 system_under_test  obs_value
0  Cc1ccc(Nc2nccc(N(C)c3ccc4c(C)n(C)nc4c3)n2)cc1S(N)(=O)=O [Pazopanib hydrochloride]  HT29 RAMS11 overexpressing cells     0.8743
1  CCc1c2c(nc3ccc(OC(=O)N4CCC(N5CCCCC5)CC4)cc13)-c1cc3c(c(=O)n1C2)COC(=O)[C@]3(O)CC [Irinotecan HCl]  HT29 RAMS11 overexpressing cells     0.9198
2  Nc1nc2[nH]cc(CCc3ccc(C(=O)N[C@@H](CCC(=O)O)C(=O)O)cc3)c2c(=O)[nH]1 [Pemetrexed disodium salt]  HT29 RAMS11 overexpressing cells     0.9118
3  Cn1c(CCCC(=O)O)nc2cc(N(CCCl)CCCl)ccc21 [Bendamustine hydrochloride]  HT29 RAMS11 overexpressing cells     0.8888
4  CN(Cc1cnc2nc(N)nc(N)c2n1)c1ccc(C(=O)N[C@@H](CCC(=O)O)C(=O)O)cc1 [Methotrexate]  HT29 RAMS11 overexpressing cells     0.9199

* * *

Recorded Viability Fold Change values for a group of compounds are listed next.
# Test system: HT29 RAMS11 overexpressing cells
# PROCEDURE SUMMARY: High-throughput viability assay (resazurin), 119 FDA-approved anticancer drugs, RAMS11 overexpressing cells (Clone1, Clone2)
# STATED CONDITIONS: OE1 (RAMS11 overexpression clone 1), 1 uM drug, 72 h, vs empty vector control
Structures can show the parent of a compound that is named as a salt.
VALUE TYPE: Viability Fold Change

COMPOUND	OBS VALUE
NCCCNCCSP(=O)(O)O [Amifostine]	1.024
CC(=O)O[C@H]1C(=O)[C@@]2(C)[C@H]([C@H](OC(=O)c3ccccc3)[C@]3(O)C[C@H](OC(=O)[C@H](O)[C@@H](NC(=O)c4ccccc4)c4ccccc4)C(C)=C1C3(C)C)[C@]1(OC(C)=O)CO[C@@H]1C[C@@H]2O [Paclitaxel]	3.5
CCCCCOC(=O)Nc1nc(=O)n([C@@H]2O[C@H](C)[C@@H](O)[C@H]2O)cc1F [Capecitabine]	0.7939
Nc1nc(Cl)nc2c1ncn2[C@H]1C[C@H](O)[C@@H](CO)O1 [Cladribine]	1.321
CC(C)(C#N)c1cc(Cn2cncn2)cc(C(C)(C)C#N)c1 [Anastrozole]	0.9957
Cc1nc(Nc2ncc(C(=O)Nc3c(C)cccc3Cl)s2)cc(N2CCN(CCO)CC2)n1 [Dasatinib]	1.289
C/C=C1\NC(=O)[C@H]2CSSCC/C=C/[C@H](CC(=O)N[C@H](C(C)C)C(=O)N2)OC(=O)[C@H](C(C)C)NC1=O [Romidepsin]	5.327
CNC(=O)c1ccccc1Sc1ccc2c(/C=C/c3ccccn3)n[nH]c2c1 [Axitinib]	0.9382
C[C@]12CC[C@@H]3c4ccc(O)cc4C[C@@H](CCCCCCCCC[S+]([O-])CCCC(F)(F)C(F)(F)F)[C@H]3[C@@H]1CC[C@@H]2O (stereo partly shown) [Fulvestrant]	1.037
O=NN(CCCl)C(=O)NC1CCCCC1 [Lomustine]	1.03
CO[C@H]1C(=O)[C@]2(C)[C@@H](OC)C[C@H]3OC[C@@]3(OC(C)=O)[C@H]2[C@H](OC(=O)c2ccccc2)[C@]2(O)C[C@H](OC(=O)[C@H](O)[C@@H](NC(=O)OC(C)(C)C)c3ccccc3)C(C)=C1C2(C)C [Cabazitaxel]	3.231
COc1cccc2c1C(=O)c1c(O)c3c(c(O)c1C2=O)C[C@@](O)(C(=O)CO)C[C@@H]3O[C@H]1C[C@H](N)[C@H](O)[C@H](C)O1 [doxorubicin HCl, reference compound]	1.973
CC(=O)Nc1cccc(-n2c(=O)n(C3CC3)c(=O)c3c(Nc4ccc(I)cc4F)n(C)c(=O)c(C)c32)c1 [Trametinib]	1.732
O=C(CCBr)N1CCN(C(=O)CCBr)CC1 [Pipobroman]	0.9838
CCc1c2c(nc3ccc(OC(=O)N4CCC(N5CCCCC5)CC4)cc13)-c1cc3c(c(=O)n1C2)COC(=O)[C@]3(O)CC [Irinotecan HCl]	0.9608
COC(=O)C[C@](O)(CCCC(C)(C)O)C(=O)O[C@@H]1C(OC)=C[C@]23CCCN2CCc2cc4c(cc2[C@H]13)OCO4 [Omacetaxine mepesuccinate]	1.614
